The reported measurements were obtained from patent US7772235B2.

# method.description: Determination of brain to plasma ratio (B/P ratio) in rat
# Assay type: in vivo, female Sprague Dawley rats
# measurement.setup: female, Sprague-Dawley, read-out: B/P Ratio (drug in brain over drug in plasma)
assay.endpoint: Kp
Could you respond with only the numeric value?

C[C@@H](Oc1nnc(-c2ccncc2)n1C)c1cc(-c2cccc(Cl)c2)on1 [reference compound]
0.8

Kindly review the next molecule as well.
input: Reported Kp for C[C@@H](Oc1nnc(-c2cc[nH]c(=O)c2)n1C)c1cc(-c2cccc(Cl)c2)on1 [Example 37.3] : what is it?
output: 0.02

====

Recorded pIC50 by entry
# assay.target: human mGluR5d (Homo sapiens, UniProt P41594)
# Sequence (P41594 21-942 isoform P41594-3 limits assumed): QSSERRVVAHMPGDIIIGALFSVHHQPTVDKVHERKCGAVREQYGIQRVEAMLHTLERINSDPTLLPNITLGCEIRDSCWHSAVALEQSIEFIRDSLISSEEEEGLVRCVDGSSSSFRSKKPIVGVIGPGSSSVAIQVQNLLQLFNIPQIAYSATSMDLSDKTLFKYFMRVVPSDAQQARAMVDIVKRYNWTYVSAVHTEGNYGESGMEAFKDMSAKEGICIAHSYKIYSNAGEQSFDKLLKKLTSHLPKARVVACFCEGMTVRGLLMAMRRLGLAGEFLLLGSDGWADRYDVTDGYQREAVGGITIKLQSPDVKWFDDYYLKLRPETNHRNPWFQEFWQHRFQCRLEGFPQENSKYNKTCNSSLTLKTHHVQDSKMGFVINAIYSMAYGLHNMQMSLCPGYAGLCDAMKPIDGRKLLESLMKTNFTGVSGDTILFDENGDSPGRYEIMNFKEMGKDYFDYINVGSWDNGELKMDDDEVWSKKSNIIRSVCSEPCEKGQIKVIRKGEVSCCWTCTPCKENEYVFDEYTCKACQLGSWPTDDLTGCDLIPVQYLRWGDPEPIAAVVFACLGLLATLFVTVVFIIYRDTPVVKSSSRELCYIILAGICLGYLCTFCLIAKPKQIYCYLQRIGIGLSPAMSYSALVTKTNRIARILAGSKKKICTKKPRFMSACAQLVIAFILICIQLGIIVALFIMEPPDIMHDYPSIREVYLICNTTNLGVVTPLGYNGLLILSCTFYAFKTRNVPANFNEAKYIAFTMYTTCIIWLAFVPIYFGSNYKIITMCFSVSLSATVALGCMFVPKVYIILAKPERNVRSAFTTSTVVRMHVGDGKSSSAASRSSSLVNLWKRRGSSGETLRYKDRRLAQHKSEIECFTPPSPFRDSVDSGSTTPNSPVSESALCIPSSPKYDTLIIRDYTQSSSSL
# method.description: FLIPR assay of mGluR5 antagonism (intracellular calcium mobilization)
# measurement.setup: cells expressing human mGluR5d
pIC50 is defined as minus the log10 of a concentration measured in mol/L.

C[C@@H](Oc1nnc(-c2ccn(C)c(=O)c2)n1C)c1noc(-c2cccc(Cl)c2)n1
7.70

input: May I ask what pIC50 has been recorded for C[C@@H](Oc1nnc(-c2cn[nH]c(=O)c2)n1C)c1cc(-c2cccc(Cl)c2)on1 ?
output: 8.10

input: Value lookup for pIC50; key = C[C@@H](Oc1nnc(-c2cc[nH]c(=O)c2)n1C)c1cc(-c2cccc(Cl)c2)on1
output: 8.00

input: Which pIC50 is listed for C[C@@H](Oc1nnc(-c2cn[nH]c(=O)c2)n1C)c1noc(-c2cccc(Cl)c2)n1 ?
output: 7.82

input: Which pIC50 value is on record for C[C@@H](Oc1nnc(-c2cc[nH]c(=O)c2)n1C)c1nnn(-c2cccc(Cl)c2)n1 ?
output: 8.05

input: GET /values?readout=pIC50&item= C[C@@H](Oc1nnc(-c2ccn(C)c(=O)c2)n1C)c1cc(-c2cccc(Cl)c2)on1
output: 7.72

input: So what's the measured pIC50 for this one? C[C@@H](Oc1nnc(-c2cn[nH]c(=O)c2)n1C)c1nnn(-c2cccc(Cl)c2)n1
output: 8.22

====

# assay.target: human mGluR5d (Homo sapiens, UniProt P41594)
# Construct: expressed in transfected cells
# method.description: FLIPR assay of mGluR5 antagonism (intracellular calcium mobilization)
# Format: cell-based
# measurement.setup: cells expressing human mGluR5d
assay.endpoint: pIC50
To interpret pIC50, take it as minus log10 of a concentration measured in moles per litre.

input: Dear colleague, I am looking for the recorded pIC50 of the following molecule: Cc1cccc(-c2cc([C@@H](C)Oc3nnc(-c4cn[nH]c(=O)c4)n3C)no2)c1
output: 7.92

input: Quick one: pIC50 for Cc1cccc(-n2nnc([C@@H](C)Oc3nnc(-c4cn[nH]c(=O)c4)n3C)n2)c1 ?
output: 8.15

input: # pIC50 lookup, item C[C@@H](Oc1nnc(-c2cc[nH]c(=O)c2)n1C)c1noc(-c2cccc(Cl)c2)n1
output: 7.89
